Data provenance: patent US20250250357A1

- Study Target: T1, human MSLN-FL-his protein (human, UniProt Q13421 296-580)
- T1 construct: made in HEK293E cells, purified on nickel column; also called hMSLN-FL-his; human MSLN full-length protein; not shown: His tag
- T1 sequence (Q13421 other isoform, or with tags, fused parts or gaps): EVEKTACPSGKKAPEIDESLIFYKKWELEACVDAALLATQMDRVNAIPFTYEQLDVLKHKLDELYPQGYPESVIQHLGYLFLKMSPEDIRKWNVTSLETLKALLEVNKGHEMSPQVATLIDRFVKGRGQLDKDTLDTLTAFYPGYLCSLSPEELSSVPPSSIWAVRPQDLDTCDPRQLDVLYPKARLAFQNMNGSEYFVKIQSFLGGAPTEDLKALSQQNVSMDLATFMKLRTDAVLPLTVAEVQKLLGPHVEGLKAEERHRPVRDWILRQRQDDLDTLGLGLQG
- Test Summary: SPR (Biacore), antibody captured on Protein A chip;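 note: flow cell at 25 °C, antigen injected for 240 s at five concentrations from 200 nM downward, dissociation followed up to 600 s, double-referenced, fitted with Langmuir 1:1 model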
Give pKd for every item shown.
Remember the convention: pKd equals -log10 of concentration in molar.

For the binder S009-F8-8.22 (antibody, human IgG1, kappa, V domains shown, human-murine chimeric antibody, human IgG1/kappa constant regions) VH: EVQLQQSGPELVKPGASVKMSCKASGYTFTDYIIHWVKQSHGKSLEWIAYIFPNNGGTGYNQKFRGKATLTVNKSSSTAYMELRSLTSEDSAVYYCARWRLRQYFDVWGTGTTVTVSS VL: DIVMTQSQKFMSTIVGDRVSITCKASQNVGTAVAWYQQKPGQSPKLLIYSASNRYTGVPDRFTGSGSGTDFTLTISNMQSEDLADYFCQQYSSYPLTFGGGTKLEIKR , what pKd is on record?
7.89

For the binder S009-F8-31.22 (antibody, human IgG1, kappa, V domains shown, human-murine chimeric antibody, human IgG1/kappa constant regions) VH: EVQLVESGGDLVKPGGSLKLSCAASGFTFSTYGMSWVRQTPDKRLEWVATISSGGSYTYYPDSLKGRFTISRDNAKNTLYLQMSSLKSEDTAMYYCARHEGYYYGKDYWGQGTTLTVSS VL: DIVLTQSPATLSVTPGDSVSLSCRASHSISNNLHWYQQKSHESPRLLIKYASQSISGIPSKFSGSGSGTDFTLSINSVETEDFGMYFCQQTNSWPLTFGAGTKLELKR , what pKd is on record?
7.06
